B1: F1*; the commonest letter at each place (parent)
chain: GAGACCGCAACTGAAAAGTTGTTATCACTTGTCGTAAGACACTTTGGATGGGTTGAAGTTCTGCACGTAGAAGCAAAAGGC

# Variants of: B1
# TEST_DESCRIPTION: fraction ligated after 30 min (ligated reads / total reads); higher = more ligase activity
# PARTICULARS: with F1*sub RNA substrate (template-directed ligation), 42 °C
OBSERVABLE: fraction ligated
Number only, no unit.

See these solved cases before continuing.
Lab note: GAGACCGCAACTGAAAAGTTGTTATCACTTTTCGTTAGACACTTTGGATGGGTTGAAGTTCTGCACGTAGAAGCAAAAGGC [G31T A36T] gave fraction ligated of 0.785

Lab note: GAGACCGCAACTGAAAAGTTGTTATCACTTGTCGTAAGACACCTTCGATGGGTTGAAGTTCTGCACGTAGAAGCAAAAGGC [T43C G46C] gave fraction ligated of 0.791

***
Lab note: GAGACCGCAACTGAAAAGTTGTTATCACTTGTTGTAAGACACTTTGGATTGGTTGAAGTTCTGCACGTAGAAGCAAAAGGC [C33T G50T] gave fraction ligated of 0.804

Lab note: GAGACCGCAACTGAAAAGTTGTGATCACTTGTCGTAAGACACTCTGGATGGGTTGAAGTTCTGCACGTAGAAGCAAAAGGC [T23G T44C] gave fraction ligated of 0.802

Lab note: GAGACCGCAACTGAAAAGTTGTTATCACTTGTCGTAAGACAGTTTAGATGGGTTGAAGTTCTGCACGTAGAAGCAAAAGGC [C42G G46A] gave fraction ligated of 0.808

Lab note: GAGACCGCAACTGAAAAGTTGTTATCACTTGTCGTAAAACACTTTGGATGGGTTGTAGTTCTGCACGTAGAAGCAAAAGGC [G38A A56T] gave fraction ligated of 0.808

Lab note: GAGACCGCAACTGAAAAGTTGTTATCACTTGTCGTAAGACACGCTGGATGGGTTGAAGTTCTGCACGTAGAAGCAAAAGGC [T43G T44C] gave fraction ligated of 0.809

Lab note: GAGACCGCAACTGAAAAGTTGTTATCACTTATCGTCAGACACTTTGGATGGGTTGAAGTTCTGCACGTAGAAGCAAAAGGC [G31A A36C] gave fraction ligated of 0.8

Lab note: GAGACCGCAACTGAAAAGTTGTGTTCACTTGTCGTAAGACACTTTGGATGGGTTGAAGTTCTGCACGTAGAAGCAAAAGGC [T23G A24T] gave fraction ligated of 0.794

The measured values listed here are drawn from the supplement of paper PMC6755084.
